- assay_details: Plasma stability assay
- Assay type: in vitro ADME, mouse
- recorded_conditions: plasma stability half-life, mouse plasma, 37° C.
Numbered stars: 1 amine (or outer) side, 2 acyl side, 3 side chain; on linkers, the order of the positions; unused ones are H or OH. Bridge positions count the residues as written; N and C are the ends. Square brackets hold non-standard residues; d marks the D form. Peptide text beside a SMILES is read from it. * marks the point of attachment. X5 = O=C([C@@H]1C[C@@H](OP(=O)(O)O)CN1[*:1])[*:2]; Piperazine(2S-CO,4-Me) = CN1CCN[C@H](C(=O)O)C1; Phe(3-Me) = Cc1cccc(C[C@H](N)C(=O)O)c1; NH(4-Cl-2-F-phenyl) = Fc1cc(Cl)ccc1N*; Pro(4R-Me) = C[C@H]1CN[C@H](C(=O)O)C1; Hyp = O=C(O)[C@@H]1C[C@@H](O)CN1; NH(4-Me-phenyl) = Cc1ccc(N*)cc1; aThr = C[C@H](O)[C@H](N)C(=O)O; Pip = O=C(O)[C@@H]1CCCCN1; 4Abz = Nc1ccc(C(=O)O)cc1; CO = O=C([*:1])[*:2]
Here the recorded Mouse is given for each entry.
Numbers only; they are read as h.

Field: example entries. Status: answers known.
compound	readout_value
CCOC(=O)c1ccc(NC(=O)N[C@@H](Cc2cccc(C)c2)C(=O)N[C@@H]2C(=O)N3C[C@H](O)C[C@H]3C(=O)N3CCCC[C@H]3C(=O)N[C@@H](C)C(=O)N3C[C@H](C)C[C@H]3C(=O)O[C@H]2C)cc1 [Compound 36] ({OEt-4Abz-CO}-[Phe(3-Me)][aThr][Hyp][Pip]A[Pro(4R-Me)]; ester 2-C)	0.30
Cc1cccc(C[C@H](NC(=O)Nc2ccc(Cl)cc2F)C(=O)N[C@@H]2C(=O)N3C[C@H](OP(=O)(O)O)C[C@H]3C(=O)N3CCCC[C@H]3C(=O)N[C@@H](C)C(=O)N3C[C@H](C)C[C@H]3C(=O)O[C@H]2C)c1 [Compound 29] ({NH(4-Cl-2-F-phenyl)-CO}-[Phe(3-Me)][aThr][X5][Pip]A[Pro(4R-Me)]; ester 2-C)	102.25
Cc1ccc(NC(=O)N[C@@H](Cc2cccc(C)c2)C(=O)N[C@H]2COC(=O)[C@@H]3CCCN3C(=O)[C@H](C)NC(=O)[C@@H]3CCCCN3C(=O)[C@@H]3C[C@@H](O)CN3C2=O)cc1	22.75
Cc1ccc(NC(=O)N[C@@H](Cc2cccc(C)c2)C(=O)N[C@H]2COC(=O)[C@@H]3C[C@@H](C)CN3C(=O)[C@H](C)NC(=O)[C@@H]3CN(C)CCN3C(=O)[C@@H]3CCCN3C2=O)cc1 [Compound 15] ({NH(4-Me-phenyl)-CO}-[Phe(3-Me)]SP[Piperazine(2S-CO,4-Me)]A[Pro(4R-Me)]; ester 2-C)	5.95

Q: Value lookup for Mouse; key = Cc1ccc(NC(=O)N[C@@H](Cc2cccc(C)c2)C(=O)N[C@H]2COC(=O)[C@@H]3C[C@H](C)CN3C(=O)[C@H](C)NC(=O)[C@@H]3CCCCN3C(=O)[C@@H]3CCCN3C2=O)cc1 (stereo in doubt)
A: 21.9
